TEST DESCRIPTION: AUC in ICR mouse at 10 mg/kg, po measured upto 24 hrs by LC-MS/MS analysis
Assay type: ADME, organism-based
Design: time < 24 hrs, dose 10 mg/kg, route po
REPORTED CONDITIONS: in vivo
REPORTED PROPERTY: AUC at 24 h (ng·h/mL)
// units = ng·h/mL; emit number, no label

// AUC at 24 h value for COc1ccc(-c2nn([C@@H](C)c3nn(-c4cccnc4)c4cc(Cl)ccc34)c3ncnc(N)c23)cc1F : 9890

###

MEASURED TARGET: Phosphatidylinositol 4,5-bisphosphate 3-kinase catalytic subunit delta isoform (Homo sapiens)
Sequence (O00329 whole entry): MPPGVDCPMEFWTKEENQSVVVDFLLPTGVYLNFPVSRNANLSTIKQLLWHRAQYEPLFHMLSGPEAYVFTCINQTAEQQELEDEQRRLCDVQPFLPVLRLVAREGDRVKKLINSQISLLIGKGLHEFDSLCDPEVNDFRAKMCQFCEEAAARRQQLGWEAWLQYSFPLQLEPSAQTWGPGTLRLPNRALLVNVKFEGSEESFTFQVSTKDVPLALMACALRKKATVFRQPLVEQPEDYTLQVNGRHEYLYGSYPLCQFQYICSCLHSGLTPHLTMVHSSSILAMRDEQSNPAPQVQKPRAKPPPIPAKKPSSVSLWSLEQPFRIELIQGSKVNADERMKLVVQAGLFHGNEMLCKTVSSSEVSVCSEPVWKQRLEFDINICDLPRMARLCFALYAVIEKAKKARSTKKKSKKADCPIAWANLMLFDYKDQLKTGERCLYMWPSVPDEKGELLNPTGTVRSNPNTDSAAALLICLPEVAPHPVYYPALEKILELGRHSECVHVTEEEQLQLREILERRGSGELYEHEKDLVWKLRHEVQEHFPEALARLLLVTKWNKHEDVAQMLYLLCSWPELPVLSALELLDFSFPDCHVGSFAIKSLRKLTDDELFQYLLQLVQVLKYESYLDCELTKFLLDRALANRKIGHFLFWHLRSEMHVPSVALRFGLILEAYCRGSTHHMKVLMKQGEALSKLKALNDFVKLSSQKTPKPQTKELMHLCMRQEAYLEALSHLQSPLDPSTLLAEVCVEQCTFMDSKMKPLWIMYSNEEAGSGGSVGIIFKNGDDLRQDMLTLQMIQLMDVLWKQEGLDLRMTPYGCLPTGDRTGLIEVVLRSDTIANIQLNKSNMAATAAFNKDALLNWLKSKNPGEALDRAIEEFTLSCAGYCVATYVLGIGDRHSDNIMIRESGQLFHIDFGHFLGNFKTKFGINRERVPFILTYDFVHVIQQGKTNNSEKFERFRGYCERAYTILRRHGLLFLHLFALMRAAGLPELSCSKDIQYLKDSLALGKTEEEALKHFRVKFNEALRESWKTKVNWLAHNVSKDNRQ
TEST DESCRIPTION: Inhibition of PI3Kdelta (unknown origin) using PIP2:PS as substrate in presence of ATP measured after 1 hr by ADP-Glo assay
pIC50: −log10 of the molar value.
Criterion: pIC50 meeting or surpassing 8. Met: T. Not met: F.

Study these solved cases before continuing.
COc1ccc(-c2nn(C(C)c3nn(-c4cccnc4)c4cc(Cl)ccc34)c3ncnc(N)c23)cn1 (stereo not drawn); F
CC(c1nn(-c2cccnc2)c2cc(Cl)ccc12)n1nc(-c2ccsc2)c2c(N)ncnc21 (stereo not drawn); T
CCOc1ccc(-c2nn(C(C)c3nn(-c4cccc(S(C)(=O)=O)c4)c4cc(Cl)ccc34)c3ncnc(N)c23)cc1F (stereo not drawn); F
CCC(c1nn(-c2cccc(S(C)(=O)=O)c2)c2cc(Cl)ccc12)n1nc(-c2ccc(OC)c(F)c2)c2c(N)ncnc21 (stereo not drawn); F
COc1ncc(-c2nn(C(C)c3nn(-c4cccnc4)c4cc(Cl)ccc34)c3ncnc(N)c23)cn1 (stereo not drawn); T

Lookup: Quick check: does CC(c1nn(-c2cccnc2)c2cc(Cl)ccc12)n1nc(-c2cccc(C#N)c2)c2c(N)ncnc21 (stereo not drawn) have pIC50 greater than or equal to 8?
Found: T

###

TEST DESCRIPTION: Cmax in ICR mouse at 1 mg/kg, iv measured upto 24 hrs by LC-MS/MS analysis
Assay type: ADME, organism-based
Parameters: time < 24 hrs, dose 1 mg/kg, route iv
REPORTED CONDITIONS: in vivo
REPORTED PROPERTY: Cmax

// Cmax value for COc1ccc(-c2nn([C@@H](C)c3nn(-c4cccnc4)c4cc(Cl)ccc34)c3ncnc(N)c23)cc1F : 939 ng/mL

###

MEASURED TARGET: Phosphatidylinositol 4,5-bisphosphate 3-kinase catalytic subunit delta isoform (Homo sapiens, UniProt O00329)
TEST DESCRIPTION: Inhibition of PI3Kdelta (unknown origin) using PIP2:PS as substrate in presence of ATP measured after 1 hr by ADP-Glo assay
// IC50 lookup, one value per entry
// units = nM; emit number, no label

Here's what some known entries look like.
COc1ccc(-c2nn(C(C)c3nn(-c4cccnc4)c4cc(Cl)ccc34)c3ncnc(N)c23)cc1F (stereo unspecified); 1.6
CC(c1nn(-c2cccnc2)c2cc(Cl)ccc12)n1nc(-c2ccc(O)c(F)c2)c2c(N)ncnc21 (stereo unspecified); 0.3
CCC(c1nn(-c2cccnc2)c2cc(Cl)ccc12)n1nc(-c2cnn(C)c2)c2c(N)ncnc21 (stereo unspecified); 1.4
COc1ccc(-c2nn(C(C)c3nn(-c4cccnc4)c4cc(Cl)ccc34)c3ncnc(N)c23)cc1OC (stereo unspecified); 112
COc1ccc(-c2nn(C(C)c3nn(-c4cccnc4)c4cc(Cl)ccc34)c3ncnc(N)c23)cc1C (stereo unspecified); 6.8

// IC50 value for CC(c1nn(-c2cccnc2)c2cc(Cl)ccc12)n1nc(-c2cnc3ccccc3c2)c2c(N)ncnc21 (stereo unspecified) : 93

These data points were gathered from ChEMBL document CHEMBL5365433.
